molecular target: KRAS G12V (Homo sapiens, UniProt P01116+P62937, G12V); experiment: Ras-Raf disruption / FRET / MOA assay (BRAF RBD); format: biochemical; conditions: Ras-Raf disruption, with Cyclophilin A; read-out: KRAS G12V FRET data IC50
Sequence (P01116 1-169 isoform P01116-2 G12V limits assumed, one chain of several): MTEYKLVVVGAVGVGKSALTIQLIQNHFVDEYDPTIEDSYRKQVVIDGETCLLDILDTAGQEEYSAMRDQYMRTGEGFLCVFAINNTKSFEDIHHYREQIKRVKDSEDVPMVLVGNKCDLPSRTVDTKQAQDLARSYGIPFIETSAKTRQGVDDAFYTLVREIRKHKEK
measurement-name: IC50

[[record]]
compound = "CCn1c(-c2cccnc2[C@H](C)OC)c2c3cc(ccc31)-c1cc(O)cc(c1)C[C@H](NC(=O)[C@H](C(C)C)N1CC[C@@]3(CCN(C(=O)[C@@H]4N[C@@H]4C4CC4)C3)C1=O)C(=O)N1CCC[C@H](N1)C(=O)OCC(C)(C)C2"
measurement_name = "IC50"
measured = "100 to 1000 nM"

[[record]]
compound = "CCn1c(-c2cccnc2[C@H](C)OC)c2c3cc(ccc31)-c1cc(O)cc(c1)C[C@H](NC(=O)[C@H](C(C)C)N(C)C(=O)[C@H]1C[C@H]3CC[C@@H](C1)N3C(=O)[C@H]1CN1)C(=O)N1CCC[C@H](N1)C(=O)OCC(C)(C)C2 (atropisomer, axis not shown)"
measurement_name = "IC50"
measured = "100 to 1000 nM"


---

molecular target: KRAS G12D (Homo sapiens, UniProt P01116+P62937, G12D); test: Disruption of BRAF RBD interaction with Ras (FRET / MOA assay, with Cyclophilin A); format: biochemical; conditions: read-out: KRAS G12D FRET data, IC50
Sequence (P01116 1-169 isoform P01116-2 G12D limits assumed): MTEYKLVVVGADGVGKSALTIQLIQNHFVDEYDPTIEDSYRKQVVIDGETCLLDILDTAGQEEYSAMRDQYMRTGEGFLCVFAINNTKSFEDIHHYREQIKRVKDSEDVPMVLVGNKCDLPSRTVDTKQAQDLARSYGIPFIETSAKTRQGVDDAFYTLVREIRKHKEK
Sequence (P62937 whole entry): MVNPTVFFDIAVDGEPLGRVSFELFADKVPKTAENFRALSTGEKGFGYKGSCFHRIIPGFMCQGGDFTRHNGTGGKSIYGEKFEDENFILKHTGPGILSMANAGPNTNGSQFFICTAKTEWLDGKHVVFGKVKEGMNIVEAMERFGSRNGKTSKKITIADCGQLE
measurement-name: IC50

[[record]]
molecule = "C=CC(=O)N1CCOC2(CCN(C(=O)N(C)[C@H](C(=O)N[C@H]3Cc4nc(n(C)n4)-c4ccc5c(c4)c(c(-c4cccnc4[C@H](C)OC)n5CC(F)(F)F)CC(C)(C)COC(=O)C4CCCN(N4)C3=O)C(C)C)CC2)C1 (some centres unmarked)"
measured = "1000 to 10000 nM"

[[record]]
molecule = "CCn1c(-c2cccnc2[C@H](C)OC)c2c3cc(ccc31)-c1cc(O)cc(c1)C[C@H](NC(=O)[C@H](C(C)C)N(C)C(=O)C1CC3CC1CN3)C(=O)N1CCC[C@H](N1)C(=O)OCC(C)(C)C2 (some centres unmarked)"
measured = "10 to 100 nM"


---

Item-by-item account of IC50
Target: NRAS G12C (Homo sapiens, UniProt P01111+P62937, G12C)
Sequence (P01111 whole entry G12C, one chain of several): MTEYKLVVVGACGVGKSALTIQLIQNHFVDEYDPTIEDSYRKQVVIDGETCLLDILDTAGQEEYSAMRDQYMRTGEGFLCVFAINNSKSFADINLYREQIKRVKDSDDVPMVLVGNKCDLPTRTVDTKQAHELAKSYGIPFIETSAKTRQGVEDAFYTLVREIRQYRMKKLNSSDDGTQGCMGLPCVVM
Assay: Ras-Raf disruption / FRET / MOA assay (BRAF RBD)
Assay type: biochemical
Details: NRAS G12C FRET data IC50, NRAS G12C
Text: Disruption of […] Ras-binding Domain (BRAF^RBD) Interaction with K-Ras by Compounds of the Invention (also Called a FRET Assay or an MOA Assay) Note—The following protocol describes a procedure for monitoring disruption of K-Ras G12C (GMP-PNP) binding to BRAF^RBD by a compound of the invention. This protocol may also be executed substituting other Ras proteins or nucleotides, such as K-Ras G12D and K-Ras G13D. […]
measurement-name: IC50

[[record]]
molecule = "CCn1c(-c2cccnc2[C@H](C)OC)c2c3cc(ccc31)-c1cc(O)cc(c1)C[C@H](NC(=O)[C@H](C(C)C)N(C)C(=O)CN(C)C(=O)[C@H]1CN1CCCN1CCOC1=O)C(=O)N1CCC[C@H](N1)C(=O)OCC(C)(C)C2 (some centres unmarked)"
measured = "< 10 nM"

[[record]]
molecule = "CCn1c(-c2cnccc2COC)c2c3cc(ccc31)-c1cc(O)cc(c1)C[C@H](NC(=O)[C@H](C(C)C)N(C)C(=O)CN(C)C(=O)[C@@H]1N[C@@H]1C(=O)OC)C(=O)N1CCC[C@H](N1)C(=O)OCC(C)(C)C2"
measured = "10 to 100 nM"


---

molecular target: NRAS G12C (Homo sapiens, UniProt P01111+P62937, G12C); assay: Disruption of BRAF RBD interaction with Ras (FRET / MOA assay, with Cyclophilin A); type: biochemical; details: NRAS G12C; read-out: NRAS G12C FRET data IC50
pIC50: −log10 of the molar value.
measurement-name: pIC50

[[record]]
molecule = "CCn1c(-c2cccnc2[C@H](C)OC)c2c3cc(ccc31)-c1cc(O)cc(c1)C[C@H](NC(=O)C1CCCC1C(F)F)C(=O)N1CCC[C@H](N1)C(=O)OCC(C)(C)C2 (stereo partly shown) [Example A254]"
measurement_name = "pIC50"
measured = "6.00 to 7.00"

[[record]]
molecule = "CCn1c(-c2cccnc2[C@H](C)OC)c2c3cc(ccc31)-c1csc(n1)C[C@H](NC(=O)[C@H](C(C)C)N(C)C(=O)N1CC[C@]13CCCN(C)C3)C(=O)N1CCC[C@H](N1)C(=O)OCC(C)(C)C2 [Example A442]"
measurement_name = "pIC50"
measured = "5.00 to 6.00"

[[record]]
molecule = "CCn1c(-c2cccnc2[C@H](C)OC)c2c3cc(ccc31)-c1cccc(c1)C[C@H](NC(=O)[C@H](C(C)C)N(C)C(=O)[C@@H]1CCN(C(=O)C#CC(C)(C)N3CCC3)C1)C(=O)N1CCC[C@H](N1)C(=O)OCC(C)(C)C2 [Example A476]"
measurement_name = "pIC50"
measured = "7.00 to 8.00"

[[record]]
molecule = "CCn1c(-c2cccnc2[C@H](C)OC)c2c3cc(ccc31)-c1cc(O)cc(c1)C[C@H](NC(=O)[C@H](C(C)C)N(C)C(=O)[C@H]1CCN(C(=O)CNC)C1)C(=O)N1CCC[C@H](N1)C(=O)OCC(C)(C)C2 (atropisomer, axis not shown) [Example A120]"
measurement_name = "pIC50"
measured = "7.00 to 8.00"


---

Item-by-item account of IC50
target: KRAS G12D (Homo sapiens, UniProt P01116+P62937, G12D); assay: Disruption of BRAF RBD interaction with Ras (FRET / MOA assay, with Cyclophilin A); assay type: biochemical; conditions: read-out: KRAS G12D FRET data, IC50
measurement-name: IC50

[[record]]
compound = "C=CC(=O)N(C)CCN(C)C(=O)N(C)[C@H](C(=O)N[C@H]1Cc2nc(cs2)-c2ccc3c(c2)c(c(-c2cccnc2[C@H](C)OCC)n3CC)CC(C)(C)COC(=O)[C@@H]2CCCN(N2)C1=O)C(C)C [Example A437]"
system_under_test = "KRAS G12D (Homo sapiens, UniProt P01116+P62937, G12D)"
measured = "1 to 10 µM"

[[record]]
compound = "CCn1c(-c2cccnc2COC)c2c3cc(ccc31)-c1cc(O)cc(c1)C[C@H](NC(=O)[C@H](C(C)C)N(C)C(=O)[C@H]1CCN(C(C)=O)C1)C(=O)N1CCC[C@H](N1)C(=O)OCC(C)(C)C2 [Example A22]"
system_under_test = "KRAS G12D (Homo sapiens, UniProt P01116+P62937, G12D)"
measured = "1 to 10 µM"


---

molecular target: KRAS G12C (Homo sapiens, UniProt P01116+P62937, G12C); assay: Ras-Raf disruption / FRET / MOA assay (BRAF RBD); assay type: biochemical; conditions: Ras-Raf disruption, with Cyclophilin A; read-out: KRAS G12C FRET data IC50
Sequence (P01116 1-169 isoform P01116-2 G12C limits assumed): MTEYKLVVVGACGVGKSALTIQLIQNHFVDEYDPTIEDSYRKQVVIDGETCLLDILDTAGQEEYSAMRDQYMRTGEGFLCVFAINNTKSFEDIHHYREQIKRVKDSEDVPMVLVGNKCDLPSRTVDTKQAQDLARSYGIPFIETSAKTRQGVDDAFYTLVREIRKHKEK
Sequence (P62937 whole entry): as the sequence (P62937 whole entry) above
pIC50: −log10 of the molar value.
Item-by-item account of pIC50
measurement-name: pIC50

[[record]]
compound = "CCn1c(-c2cccnc2[C@H](C)OC)c2c3cc(ccc31)-c1cc(O)cc(c1)C[C@H](NC(=O)[C@H](C(C)C)N(C)C(=O)c1ncc(NC(=O)[C@@H]3CN3)n1C)C(=O)N1CCC[C@H](N1)C(=O)OCC(C)(C)C2 [Example 83]"
measured = "7.00 to 8.00"

[[record]]
compound = "CCn1c(-c2cccnc2[C@H](C)OC)c2c3cc(ccc31)-c1cc(O)cc(c1)C[C@H](NC(=O)[C@H](C(C)C)N(C)C(=O)N1CC[C@@H](N(C)C(=O)[C@H]3CN3)C1)C(=O)N1CCC[C@H](N1)C(=O)OCC(C)(C)C2 (atropisomer, axis not shown) [Example 252]"
measured = "> 8.00"

[[record]]
compound = "CCn1c(-c2cccnc2[C@H](C)OC)c2c3cc(ccc31)-c1cc(O)cc(c1)C[C@H](NC(=O)[C@H](C(C)C)N(C)C(=O)N1CC[C@H](N(C)C(=O)[C@@H]3CN3)C1)C(=O)N1CCC[C@H](N1)C(=O)OCC(C)(C)C2 (atropisomer, axis not shown) [Example 255]"
measured = "7.00 to 8.00"

[[record]]
compound = "CCn1c(-c2cccnc2[C@H](C)OC)c2c3cc(ccc31)-c1csc(n1)C[C@H](NC(=O)[C@H](C(C)C)N(C)C(=O)N1CCN(C(=O)[C@H]3CN3)[C@H](C)C1)C(=O)N1CCC[C@H](N1)C(=O)OCC(C)(C)C2 [Example 299]"
measured = "7.00 to 8.00"


Reference source for all entries: patent US20230233569A1
